Biological target: T1, 4H1544-bN
T1 chain: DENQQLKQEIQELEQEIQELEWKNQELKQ
Test: two-hybrid library CCNG1;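 further: natural log of median RNA to DNA barcode read ratio; higher means stronger binding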
Measurement name: interaction score

INSERT INTO measurements (binder, observed_result) VALUES
  ('DENQQLEQENQELKQEIQELEWKIQELKQ [4H1222-bN]', -1.38);

a: DENQQLEQEIQELEQKNQELKWEIQELEQ [4H1081-bN]
b: DENQQLEQKIQELKQENQELKWKIQELEQ [4H1373-bN]
Asked: I would appreciate it if you could say which entry, a or b , has the lower interaction score value. Record your answer as the label of the chosen record.
Given back: a
(a: -1.22, b: -0.522)
